# Measurement target: Golgi-associated PDZ and coiled-coil motif-containing protein (Homo sapiens)
# Test method notes: disruption of CAL PDZ-reporter peptide interaction – biochemical, fluorescence polarization, Cer-tagged CAL PDZ, HTS, primary screen (AID 504414)
# Condition parameters: purified CAL PDZ, TMR-peptide fluorescence polarization, 1 h; at 20 µM
Out of some 330,000 compounds screened, about 55 (0.02%) were called active.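 The calls were made as follows: active = highest replicate inhibition of at least 40%; inactive = the rest.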 Many of the other results were omitted from the sample, so actives are more common in it than they were.
Select the correct class. Options are active, inactive and nothing else.

* COc1cc(NC(=O)c2ccc3c(c2)OCO3)ccc1NC(=O)c1cccs1 | inactive
* Nc1cc2c(cc1Br)-c1ccc(F)cc1C2=O | inactive
* COc1cc2ccccc2cc1C(=O)Nc1ccc(NC(=O)c2cccs2)cc1 | inactive
* CN(CCO)S(=O)(=O)c1ccc2c(c1)C(=O)c1cc(S(=O)(=O)N(C)CCO)ccc1-2 | inactive
* COc1ccc(-c2c(C)nn3c(N4CCC(C(=O)N5CCCCC5)CC4)cc(C)nc23)cc1OC | inactive
* S=c1[nH]cc(-c2ccc(Cl)cc2)n1-c1ccccc1 | inactive
* Cc1nc(-c2ccccc2)sc1-c1nnc(C2CC2)o1 | inactive
* O=C(CN(CC1CCCO1)C(=O)CNS(=O)(=O)c1ccc(Cl)cc1)NCc1ccccc1 (configuration not stated) | inactive
* COc1ccc(Cl)cc1S(=O)(=O)N1CCC(O)(c2ccc(Cl)cc2)CC1 | inactive
* COc1ccc(-n2c(O)c(C=NCC(c3ccco3)N3CCCC3)c3ccccc3c2=O)cc1OC (configuration not stated) | inactive

-- ask Identify the outcome logged in this assay for the compound shown: COc1ccc(CCN(C)C(=O)C23CC4CC(CC(Cl)(C4)C2)C3)cc1OC
-- reply inactive

-- ask Continue with CN1/C(=c2/s/c(=C3/C(=O)N(c4ccccc4)NC3=Nc3ccccc3)n(C)c2=O)C(C)(C)c2ccccc21
-- reply inactive

-- ask Continue with CN(C)c1ccc(CNC2C3CC4CC(C3)CC2C4)cc1 (configuration not stated)
-- reply inactive

-- ask Continue with CCc1c(Nc2ccccc2Cl)nc(N)[nH]c1=O
-- reply inactive

-- ask Continue with CCCCCc1nnc(NC(=O)c2ccc(=O)n(C)n2)s1
-- reply active
